Test: solvent given as SMILES
Details: in CC#N
Reported emission maximum values for a set of compounds

{"columns": ["Smiles input", "emission maximum"],
 "data": [
  ["O=C1NC(=O)c2c1c1c3ccccc3[nH]c1c1[nH]c3ccccc3c21", "500 nm"],
  ["CC1=CC(C)=[N+]2C1=C(c1ccccc1)c1c(C)cc(/C=C/c3ccccc3)n1[B-]2(F)F", "569 nm"],
  ["COc1cc(OC)c2c(c1)C(=O)c1ccc(OC)cc1-2", "578 nm"],
  ["CC(=O)c1c2c(cc3ccc(N(C)C)cc13)CCC2", "529 nm"],
  ["F[B-]1(F)N(c2ccccc2)C=Cc2cccc[n+]21", "555 nm"],
  ["c1ccc(-c2nc(-c3ccc(-c4ccc(-n5c6ccccc6c6ccccc65)cc4)cn3)oc2-c2ccccc2)cc1", "415 nm"],
  ["Oc1ccc2ccccc2c1/C=N/c1cc2nc3ccccc3nc2cc1/N=C/c1c(O)ccc2ccccc12", "525 nm"],
  ["COC(=O)/C=C/c1sc(-c2ccc(N(C)C)s2)c(-c2cn(C)c3ccccc23)c1O", "663 nm"],
  ["CN(C)c1ccc(/C=C/C=C/c2nc3ccccc3o2)cc1", "535 nm"],
  ["C(=C\\c1c2ccccc2cc2ccccc12)/c1ccccc1", "476 nm"]
]}
